meta.source: PubChem BioAssay (NCI)

Test system: HL-60(TB) leukemia
TEST NAME: NCI tumour cell line growth inhibition, 48 h; in the data active means GI50 below about 0.43 µM; inactive means the rest
Outcome codes: TRUE for active, FALSE for inactive

>  <COMPOUND>
CC(C)(C)OC(=O)NCCCCCCCCCCCCn1c2c(c3ccccc3c1=O)C(=O)c1ccccc1-2

>  <ANSWER LABEL>
FALSE

$$$$
>  <COMPOUND>
CCOC(=O)/C=C/c1ccc([N+](=O)[O-])o1

>  <ANSWER LABEL>
FALSE

$$$$
>  <COMPOUND>
CCCCS(=O)(=O)c1cc(Nc2ccc(O)c3c2C(=O)c2ccccc2C3=O)ccc1C

>  <ANSWER LABEL>
FALSE

$$$$
>  <COMPOUND>
CC(C)=CC(=O)OC1C2C(C)=CC(=O)C(O)C2(C)C2C3(O)OCC24C(CC(=O)OC14)C(C)C3O (stereo not given)

>  <ANSWER LABEL>
TRUE

$$$$
>  <COMPOUND>
COc1cc(C=NCC(=O)CSC(c2ccccc2)c2ccccc2)ccc1O

>  <ANSWER LABEL>
FALSE

$$$$
>  <COMPOUND>
O=C(NCc1cn(Cc2cccc(Oc3ccccc3)c2)nn1)c1cccnc1NCc1ccc(Cl)cc1

>  <ANSWER LABEL>
FALSE

$$$$
>  <COMPOUND>
CN(C)CCN=c1nc2c(c(N)n1-c1ccccc1)c(=S)n(-c1ccccc1)c(=S)n2-c1ccccc1

>  <ANSWER LABEL>
FALSE

$$$$
>  <COMPOUND>
CN(CCOc1ccc(NS(C)(=O)=O)cc1)CCc1ccc(NS(C)(=O)=O)cc1

>  <ANSWER LABEL>
FALSE

$$$$
>  <COMPOUND>
COC(=O)N[C@@H](C)CNc1nccc(-c2cn(C(C)C)nc2-c2cc(Cl)cc(NS(C)(=O)=O)c2F)n1

>  <ANSWER LABEL>
FALSE

$$$$
>  <COMPOUND>
O=C1c2ccccc2-c2c1c1ccccc1c(=O)n2CCNCCNCCNCCNCCn1c2c(c3ccccc3c1=O)C(=O)c1ccccc1-2

>  <ANSWER LABEL>
TRUE

$$$$

---

Tested on: NCI-H460 lung
TEST NAME: NCI tumour cell line growth inhibition, 48 h
Measured TGI values are reported for all entries that follow.
ASSAY READOUT: TGI

>  <COMPOUND>
CCCCS(=O)(=O)c1cc(Nc2ccc(O)c3c2C(=O)c2ccccc2C3=O)ccc1C

>  <OBSERVED RESULT>
> 100 µM

$$$$
>  <COMPOUND>
C#CC(O)/C=C/C(O)CCCC(O)CC#CC(O)C#CCCCCC(O)/C=C/CCCC(=O)CCCCCCCCCCCCCCCC(O)C(O)C#CC(=O)O (centres undefined)

>  <OBSERVED RESULT>
> 25 µM

$$$$
>  <COMPOUND>
O=S1(=O)CCC2=CC(C(F)(F)F)=CC(C(F)(F)F)=CN21

>  <OBSERVED RESULT>
8.01 µM

$$$$
>  <COMPOUND>
O=C1C=C(NCCc2ccccc2)c2ccccc2C1=O

>  <OBSERVED RESULT>
3.18 µM

$$$$
>  <COMPOUND>
C=C1C(=O)OC2C[C@@]3(C)CCCC(=C)C3CC12 (some centres undefined)

>  <OBSERVED RESULT>
18.1 µM

$$$$
>  <COMPOUND>
C=C(c1ccccc1)c1cc2c(=O)[nH]ccc2n1C

>  <OBSERVED RESULT>
> 100 µM

$$$$
>  <COMPOUND>
COC1(C)CCC(OS(C)(=O)=O)CO1 (centres undefined)

>  <OBSERVED RESULT>
> 100 µM

$$$$
>  <COMPOUND>
CCOC(=O)c1c(SC(=O)c2ccc(Cl)cc2)n(-c2ccccc2)c(=S)n(-c2ccccc2)c1=O

>  <OBSERVED RESULT>
> 100 µM

$$$$
>  <COMPOUND>
CCOc1ccc2cc(-c3nn(CC4CCN(C)CC4)c4ncnc(N)c34)ccc2c1

>  <OBSERVED RESULT>
33.7 µM

$$$$
>  <COMPOUND>
Cc1cc2ccccc2oc(=O)/c1=N\Nc1ccccc1

>  <OBSERVED RESULT>
> 100 µM

$$$$
>  <COMPOUND>
C[C@]12CC[C@H]3[C@@H](CC=C4C[C@@H](O)CC[C@@]43C)[C@@H]1C/C(=C\c1ccc([N+](=O)[O-])cc1)[C@@H]2O

>  <OBSERVED RESULT>
72.9 µM

$$$$
>  <COMPOUND>
COc1ccc(C2C3=C(COC3=O)Oc3cc4c(cc32)OCO4)cc1OC (centres undefined)

>  <OBSERVED RESULT>
> 100 µM

$$$$
>  <COMPOUND>
N/C(=N\N=C/c1c(O)cc(O)cc1O)NO

>  <OBSERVED RESULT>
> 100 µM

$$$$
>  <COMPOUND>
Nc1ccnc2c1ncn2[C@H]1C[C@H](O)[C@@H](CO)O1

>  <OBSERVED RESULT>
> 100 µM

$$$$
>  <COMPOUND>
COC(=O)[C@@H]1C=CCN1S(=O)(=O)c1ccc(C)cc1

>  <OBSERVED RESULT>
> 100 µM

$$$$
>  <COMPOUND>
c1ccc(N2CCN(CCN3CCc4c([nH]c5ccccc45)C3c3cccnc3)CC2)cc1 (centres undefined)

>  <OBSERVED RESULT>
> 100 µM

$$$$
>  <COMPOUND>
NC(=S)c1cccc(C2Nc3ccccc3O2)c1 (centres undefined)

>  <OBSERVED RESULT>
> 100 µM

$$$$
>  <COMPOUND>
O=C(OCC1=CC(=O)c2ccccc2C1=O)c1ccccc1

>  <OBSERVED RESULT>
6.19 µM

$$$$
>  <COMPOUND>
O=C(NCCCN1CCN(CCCNC(=O)Nc2cc(Cl)ccc2Cl)CC1)Nc1cc(Cl)ccc1Cl

>  <OBSERVED RESULT>
> 100 µM

$$$$
